Source listed as ChEMBL document CHEMBL4673354.

Experiment Notes: Apparent permeability across apical to basolateral side and basolateral to apical side in human Caco-2 cells at 5 uM measured up to 60 mins by LC-MS/MS analysis
Type: ADME, cell-based
Value Kind: Papp at 1 h, 5 µM (×10⁻⁶ cm/s)
Numbers only; they are read as ×10⁻⁶ cm/s.

Input line: Form field: reported Papp at 1 h, 5 µM of CCCCOC(=O)NS(=O)(=O)c1sc(CC(C)C)cc1-c1cccc(Cn2ccnc2)c1
Output line: 3.4

Input line: Next molecule up: CCCCOC(=O)NS(=O)(=O)c1sc(CC(C)C)cc1-c1cccc(C(=O)Cn2cnc3cc(C)c(C)cc32)c1
Output line: 0.4

Input line: Now give it for COc1ccc2c(c1OCc1ccccc1)C[C@@H](C(=O)O)N(C(=O)C(c1ccccc1)c1ccccc1)C2 [OLODANRIGAN] too.
Output line: 1.8
